Recorded values, source the kinase profiling compilation of Christmann-Franck et al. (2016).

Target: NEK7 (human) (UniProt Q8TDX7)
Sequence (Q8TDX7 whole entry, looked up): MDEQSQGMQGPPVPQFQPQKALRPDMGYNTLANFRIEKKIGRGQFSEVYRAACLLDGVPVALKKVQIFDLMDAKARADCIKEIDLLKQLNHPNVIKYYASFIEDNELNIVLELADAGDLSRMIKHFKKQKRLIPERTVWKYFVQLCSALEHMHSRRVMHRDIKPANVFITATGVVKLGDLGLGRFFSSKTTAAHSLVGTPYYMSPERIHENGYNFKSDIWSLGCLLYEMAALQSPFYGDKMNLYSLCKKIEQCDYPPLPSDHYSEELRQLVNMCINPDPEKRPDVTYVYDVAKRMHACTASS
Experiment: radiometric filter-binding kinase assay, Kinase HotSpot
Settings: compound 0.5 µM; ATP 10 µM
MEASURED_METRIC: residual activity

Consider the worked cases shown below.
O=C1Cc2c([nH]c3ccc([N+](=O)[O-])cc23)-c2ccccc2N1 ... 89.7%
O=c1cc(-c2cccc3c2Sc2ccccc2S3)oc(N2CCOCC2)c1 ... 105%
Cc1ccc(NC(=O)c2ccc(CN3CCN(C)CC3)cc2)cc1Nc1nc(-c2cccnc2)cs1 ... 96.3%

State the recorded residual activity for every item in the following list.
1. CC(C)n1cnc2c(Nc3cccc(Cl)c3)nc(NCCO)nc21
2. Nc1nc(Nc2ccc(S(N)(=O)=O)cc2)nn1C(=O)c1c(F)cccc1F
3. CS(=O)c1ccc(-c2nc(-c3ccc(F)cc3)c(-c3ccncc3)[nH]2)cc1 (configuration not stated)
4. CCCNC(=O)Nc1ccc(Oc2ncnc3cc(OC)c(OC)cc23)cc1Cl
5. CSc1nc(-c2ccc(F)cc2)c(-c2ccnc(NC(C)c3ccccc3)c2)[nH]1 (configuration not stated)
6. O=C(Nc1ccc(Cl)cc1)c1ccccc1NCc1ccncc1
7. NC(=O)c1ccc(N(C(N)=O)c2c(F)cccc2F)nc1-c1ccc(F)cc1F
8. O=C1Nc2ccc3ncsc3c2/C1=C/c1c[nH]cn1

Solution:
93.9%
99%
98.9%
103%
89.6%
103%
90.1%
79.6%

Count: 3. Required value per item: residual activity.
1. O=C(NC(NC(=S)Nc1ccc(F)c([N+](=O)[O-])c1)C(Cl)(Cl)Cl)C(c1ccccc1)c1ccccc1 (configuration not stated)
2. COc1cc2ncnc(Nc3ccc(F)c(Cl)c3)c2cc1OCCCN1CCOCC1
3. O=C1Nc2ccccc2/C1=C\c1c(Cl)[nH]c2ccccc12

Solution:
1: 102%; 2: 96.9%; 3: 97.6%

Could you report residual activity for every entry in the following list?
1. O=c1cc(N2CCNCC2)oc2c(-c3ccccc3)cccc12
2. Cc1cc2ncc(-c3ccccc3)nc2cc1C

Solution:
["95.7%", "102%"]

For each of the compounds below, state residual activity.
1. COc1cc2nccc(Oc3ccc(NC(=S)NC(=O)c4ccccc4C)cc3)c2cc1OC
2. COc1ccc(-c2cnc3c(-c4ccsc4)cnn3c2)cc1
3. Oc1ccc(-c2nc(-c3ccc(F)cc3)c(-c3ccncc3)[nH]2)cc1
4. Nc1nc(Nc2ccc(S(N)(=O)=O)cc2)nn1C(=S)Nc1c(F)cccc1F
5. Clc1ccc(Nc2nnc(Cc3ccncc3)c3ccccc23)cc1

Solution:
1: 106%; 2: 109%; 3: 103%; 4: 82.6%; 5: 96.8%

Exercise: What value of measured residual activity is listed for `O=C1Nc2cc(Br)ccc2/C1=C1/Nc2ccccc2/C1=N\O` ?
Solution: 103%

----------
Molecular target: PAK7 (human) (UniProt Q9P286)
Sequence (Q9P286 whole entry, looked up): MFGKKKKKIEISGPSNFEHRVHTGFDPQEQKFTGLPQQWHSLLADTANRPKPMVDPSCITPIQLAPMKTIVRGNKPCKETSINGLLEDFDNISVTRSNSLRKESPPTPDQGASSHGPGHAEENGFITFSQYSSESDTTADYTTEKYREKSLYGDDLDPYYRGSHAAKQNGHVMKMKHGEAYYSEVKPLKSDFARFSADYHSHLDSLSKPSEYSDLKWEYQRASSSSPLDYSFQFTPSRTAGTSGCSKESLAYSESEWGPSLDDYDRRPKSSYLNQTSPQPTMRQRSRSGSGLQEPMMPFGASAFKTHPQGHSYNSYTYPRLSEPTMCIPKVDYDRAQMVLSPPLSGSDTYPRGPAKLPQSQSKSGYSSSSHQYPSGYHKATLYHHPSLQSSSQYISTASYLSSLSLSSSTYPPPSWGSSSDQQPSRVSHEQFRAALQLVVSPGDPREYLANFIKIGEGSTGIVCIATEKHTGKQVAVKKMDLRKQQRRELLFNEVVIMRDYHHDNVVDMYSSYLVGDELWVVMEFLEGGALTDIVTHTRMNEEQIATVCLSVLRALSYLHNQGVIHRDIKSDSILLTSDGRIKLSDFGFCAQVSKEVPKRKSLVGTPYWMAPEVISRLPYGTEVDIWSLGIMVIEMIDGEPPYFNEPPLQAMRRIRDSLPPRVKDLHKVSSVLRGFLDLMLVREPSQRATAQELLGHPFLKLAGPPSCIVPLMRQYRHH
Assay: radiometric filter-binding kinase assay, Kinase HotSpot
Conditions: compound 0.5 µM; ATP 10 µM
MEASURED_METRIC: residual activity (%)
One number for each entry, in %.

Worked examples follow.
CSc1nc(-c2ccc(F)cc2)c(-c2ccnc(NC(C)c3ccccc3)c2)[nH]1 (stereo not given) ... 85.3
Nc1nc(Nc2ccc(S(N)(=O)=O)cc2)nn1C(=S)Nc1c(F)cccc1F ... 43.8
CS(=O)c1ccc(-c2nc(-c3ccc(F)cc3)c(-c3ccncc3)[nH]2)cc1 (stereo not given) ... 104
COc1ccc(-c2cnc3c(-c4ccsc4)cnn3c2)cc1 ... 78.1
O=C(NC(NC(=S)Nc1ccc(F)c([N+](=O)[O-])c1)C(Cl)(Cl)Cl)C(c1ccccc1)c1ccccc1 (stereo not given) ... 104

For every item below, please supply its residual activity.
1. CCCNC(=O)Nc1ccc(Oc2ncnc3cc(OC)c(OC)cc23)cc1Cl
2. CCN1/C(=C/C(C)=O)Sc2ccc(OC)cc21
3. Oc1ccc(-c2nc(-c3ccc(F)cc3)c(-c3ccncc3)[nH]2)cc1
4. COc1cc2nccc(Oc3ccc(NC(=S)NC(=O)c4ccccc4C)cc3)c2cc1OC
5. Cc1ccc(NC(=O)c2ccc(CN3CCN(C)CC3)cc2)cc1Nc1nc(-c2cccnc2)cs1

Solution:
[84.5, 84.7, 107, 102, 92]

----------
Target: MAP3K7 TAB1 (human) (UniProt O43318+Q15750)
Sequence (O43318 whole entry, looked up): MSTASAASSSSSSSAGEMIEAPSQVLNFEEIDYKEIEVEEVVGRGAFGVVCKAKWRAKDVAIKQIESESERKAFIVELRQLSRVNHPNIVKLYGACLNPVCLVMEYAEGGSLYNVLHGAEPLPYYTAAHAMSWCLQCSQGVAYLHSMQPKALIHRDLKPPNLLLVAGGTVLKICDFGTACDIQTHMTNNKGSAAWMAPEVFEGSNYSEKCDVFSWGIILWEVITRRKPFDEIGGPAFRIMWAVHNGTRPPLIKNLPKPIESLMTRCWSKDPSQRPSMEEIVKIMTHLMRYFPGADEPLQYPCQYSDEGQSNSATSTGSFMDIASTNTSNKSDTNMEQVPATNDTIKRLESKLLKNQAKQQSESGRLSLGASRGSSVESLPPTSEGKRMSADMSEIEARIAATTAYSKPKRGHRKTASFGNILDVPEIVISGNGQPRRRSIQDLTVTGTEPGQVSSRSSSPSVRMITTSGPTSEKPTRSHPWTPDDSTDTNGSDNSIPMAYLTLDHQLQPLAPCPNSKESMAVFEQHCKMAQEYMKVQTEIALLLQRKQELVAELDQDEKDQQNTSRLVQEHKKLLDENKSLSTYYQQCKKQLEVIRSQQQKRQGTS
Sequence (Q15750 whole entry, looked up): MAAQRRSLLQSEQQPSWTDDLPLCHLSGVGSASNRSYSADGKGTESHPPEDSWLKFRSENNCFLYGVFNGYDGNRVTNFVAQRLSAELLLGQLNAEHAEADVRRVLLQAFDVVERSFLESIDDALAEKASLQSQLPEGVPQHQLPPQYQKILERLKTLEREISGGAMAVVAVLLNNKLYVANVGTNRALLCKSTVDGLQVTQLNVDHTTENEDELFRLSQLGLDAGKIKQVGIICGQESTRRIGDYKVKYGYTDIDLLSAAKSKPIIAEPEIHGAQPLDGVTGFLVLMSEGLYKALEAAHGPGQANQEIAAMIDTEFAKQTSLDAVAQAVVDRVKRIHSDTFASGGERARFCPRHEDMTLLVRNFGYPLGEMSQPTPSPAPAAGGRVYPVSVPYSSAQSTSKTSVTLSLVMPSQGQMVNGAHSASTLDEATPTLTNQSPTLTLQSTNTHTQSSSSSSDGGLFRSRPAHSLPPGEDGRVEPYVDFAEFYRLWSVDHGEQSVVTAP
Assay: radiometric filter-binding kinase assay, Kinase HotSpot
Conditions: compound 0.5 µM; ATP 10 µM
So I've got a bunch of molecules here, and I need their residual activity values.
Give bare numbers, in %.

Below are worked cases with known answers.
Cc1cc2ncc(-c3ccccc3)nc2cc1C ... 89.9
CC(C)n1cnc2c(Nc3cccc(Cl)c3)nc(NCCO)nc21 ... 92.7
CSc1nc(-c2ccc(F)cc2)c(-c2ccnc(NC(C)c3ccccc3)c2)[nH]1 (configuration not stated) ... 90.5
O=C(NC(NC(=S)Nc1ccc(F)c([N+](=O)[O-])c1)C(Cl)(Cl)Cl)C(c1ccccc1)c1ccccc1 (configuration not stated) ... 89.7
Oc1ccc(-c2nc(-c3ccc(F)cc3)c(-c3ccncc3)[nH]2)cc1 ... 97.7

Parameters: items (list). Returns: residual activity for each item.
1. NC(=O)c1ccc(-c2nc(-c3ccccn3)c(-c3ccc4c(c3)OCCO4)[nH]2)cc1
2. Cc1ccc(NC(=O)c2ccc(CN3CCN(C)CC3)cc2)cc1Nc1nc(-c2cccnc2)cs1
3. O=C1Nc2cc(Br)ccc2/C1=C1/Nc2ccccc2/C1=N\O

Solution:
1: 104; 2: 98.6; 3: 79.3

----------
Target: UniProt P51817
Sequence (P51817 whole entry, looked up): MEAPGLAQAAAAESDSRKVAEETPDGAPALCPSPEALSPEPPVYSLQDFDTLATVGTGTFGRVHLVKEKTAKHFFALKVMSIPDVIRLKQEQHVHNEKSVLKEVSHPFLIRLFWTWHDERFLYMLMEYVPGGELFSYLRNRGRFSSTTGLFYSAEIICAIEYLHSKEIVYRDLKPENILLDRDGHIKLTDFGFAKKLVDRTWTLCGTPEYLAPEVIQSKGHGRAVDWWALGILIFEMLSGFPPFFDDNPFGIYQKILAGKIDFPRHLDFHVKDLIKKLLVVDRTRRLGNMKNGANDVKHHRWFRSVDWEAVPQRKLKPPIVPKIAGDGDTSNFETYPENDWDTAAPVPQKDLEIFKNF
Assay: radiometric filter-binding kinase assay, Kinase HotSpot
Conditions: compound 0.5 µM; ATP 10 µM
Assign residual activity to each entry below.
Answers are plain numbers, in %.

Items follow; give residual activity for each.
1. C#Cc1cccc(Nc2ncnc3cc(OCCOC)c(OCCOC)cc23)c1
2. Nc1n[nH]c2nnc(-c3c(-c4ccccc4)nn4ccccc34)cc12
3. CC(C)n1cnc2c(Nc3cccc(Cl)c3)nc(NCCO)nc21
4. CC(C)[C@H](CO)Nc1nc(Nc2cccc(Cl)c2)c2ncn(C(C)C)c2n1
5. O=c1cc(N2CCNCC2)oc2c(-c3ccccc3)cccc12

Solution:
[111, 101, 96.4, 97.4, 99]

Dear colleague, could you please provide residual activity for the compounds listed below?
1. O=C(NC(NC(=S)Nc1ccc(F)c([N+](=O)[O-])c1)C(Cl)(Cl)Cl)C(c1ccccc1)c1ccccc1 (stereo not drawn)
2. Nc1nc(Nc2ccc(S(N)(=O)=O)cc2)nn1C(=S)Nc1c(F)cccc1F
3. O=C1Nc2ccccc2/C1=C\c1c(Cl)[nH]c2ccccc12

Solution:
1. 106
2. 76.3
3. 106

----------
Target: PTK6 (human) (UniProt Q13882)
Sequence (Q13882 whole entry, looked up): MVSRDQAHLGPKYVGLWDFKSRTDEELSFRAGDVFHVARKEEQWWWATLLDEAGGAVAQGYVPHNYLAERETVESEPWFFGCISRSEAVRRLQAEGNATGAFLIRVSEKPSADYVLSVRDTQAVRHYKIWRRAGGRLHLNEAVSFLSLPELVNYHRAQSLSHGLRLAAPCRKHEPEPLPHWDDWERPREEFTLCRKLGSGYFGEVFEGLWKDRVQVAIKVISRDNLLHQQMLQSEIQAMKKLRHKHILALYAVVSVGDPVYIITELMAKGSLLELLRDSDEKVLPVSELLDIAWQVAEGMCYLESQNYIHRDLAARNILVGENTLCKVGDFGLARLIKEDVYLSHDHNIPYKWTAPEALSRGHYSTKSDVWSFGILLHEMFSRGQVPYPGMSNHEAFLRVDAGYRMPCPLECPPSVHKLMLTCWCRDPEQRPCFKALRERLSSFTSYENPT
Assay: radiometric filter-binding kinase assay, Kinase HotSpot
Settings: compound 0.5 µM; ATP 10 µM
# strict inequality: residual activity < 80% yields YES, everything else yields NO

The examples below pair each entry with its known result.
COc1cc2ncnc(Nc3ccc(F)c(Cl)c3)c2cc1OCCCN1CCOCC1 ... YES
CC(C)n1cnc2c(Nc3cccc(Cl)c3)nc(NCCO)nc21 ... NO
CCCNC(=O)Nc1ccc(Oc2ncnc3cc(OC)c(OC)cc23)cc1Cl ... YES
COc1cc2nccc(Oc3ccc(NC(=S)NC(=O)c4ccccc4C)cc3)c2cc1OC ... YES

Exercise: Determine whether this molecule shows residual activity lower than 80% (ties excluded): `Nc1n[nH]c2nnc(-c3c(-c4ccccc4)nn4ccccc34)cc12`
Solution: NO

Exercise: Does the reported residual activity of `O=C(Nc1ccc(Cl)cc1)c1ccccc1NCc1ccncc1` stay below 80%?
Solution: YES

----------
Target: PRKCE (human) (UniProt Q02156)
Sequence (Q02156 whole entry, looked up): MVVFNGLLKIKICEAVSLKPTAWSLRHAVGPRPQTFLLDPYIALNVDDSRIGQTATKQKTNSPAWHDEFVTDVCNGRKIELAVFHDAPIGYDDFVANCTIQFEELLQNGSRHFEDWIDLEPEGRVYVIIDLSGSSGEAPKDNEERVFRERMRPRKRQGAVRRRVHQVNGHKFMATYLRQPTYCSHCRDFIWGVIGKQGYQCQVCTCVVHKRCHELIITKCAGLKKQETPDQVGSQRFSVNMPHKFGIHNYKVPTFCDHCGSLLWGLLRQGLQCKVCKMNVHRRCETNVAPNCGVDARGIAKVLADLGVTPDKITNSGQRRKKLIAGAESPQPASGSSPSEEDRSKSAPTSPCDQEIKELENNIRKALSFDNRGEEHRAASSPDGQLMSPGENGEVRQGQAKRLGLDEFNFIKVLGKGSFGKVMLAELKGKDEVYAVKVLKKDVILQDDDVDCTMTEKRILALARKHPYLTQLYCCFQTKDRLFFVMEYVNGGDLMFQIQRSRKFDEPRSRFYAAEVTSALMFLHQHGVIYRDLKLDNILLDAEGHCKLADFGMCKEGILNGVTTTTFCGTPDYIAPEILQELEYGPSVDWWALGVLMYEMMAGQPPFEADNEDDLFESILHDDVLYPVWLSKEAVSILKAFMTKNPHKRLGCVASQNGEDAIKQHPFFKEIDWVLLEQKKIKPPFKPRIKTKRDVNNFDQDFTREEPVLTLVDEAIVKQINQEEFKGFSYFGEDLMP
Experiment: radiometric filter-binding kinase assay, Kinase HotSpot
Conditions: compound 0.5 µM; ATP 10 µM
MEASURED_METRIC: residual activity (%)
Answers are plain numbers, in %.

COc1ccc(-c2cnc3c(-c4ccsc4)cnn3c2)cc1 ... 103
O=C1Nc2cc(Br)ccc2/C1=C1/Nc2ccccc2/C1=N\O ... 92.4
CSc1nc(-c2ccc(F)cc2)c(-c2ccnc(NC(C)c3ccccc3)c2)[nH]1 (stereo unspecified) ... 87.6
CCN1/C(=C/C(C)=O)Sc2ccc(OC)cc21 ... 95.2
Cc1cc2ncc(-c3ccccc3)nc2cc1C ... 99.6

Go through the items and report each one's residual activity.
1. CCCNC(=O)Nc1ccc(Oc2ncnc3cc(OC)c(OC)cc23)cc1Cl
2. Nc1nc(Nc2ccc(S(N)(=O)=O)cc2)nn1C(=O)c1c(F)cccc1F
3. Oc1ccc(-c2nc(-c3ccc(F)cc3)c(-c3ccncc3)[nH]2)cc1
4. Nc1nc(Nc2ccc(S(N)(=O)=O)cc2)nn1C(=S)Nc1c(F)cccc1F

Solution:
1: 96.8; 2: 97.2; 3: 96; 4: 11.5

Go through the items and report each one's residual activity.
1. Clc1ccc(Nc2nnc(Cc3ccncc3)c3ccccc23)cc1
2. CC(C)(C)c1nc2c3ccc(F)cc3c3c(=O)[nH]ccc3c2[nH]1

Solution:
1. 100
2. 51.4
